experiment: Bioavailability of levosimendan following buccal and intravenous administration in dogs (plasma concentration); format: in vivo, beagle dogs; conditions: beagle, dog, plasma, iv, 0.02 mg/kg, dog plasma, iv 0.02 mg/kg, 120 min, Dog 3
Reported Property: concentration at 120 min (ng/mL)
Hi! Could you send only the number? It should be in ng/mL, unit omitted.

Query: Looking for the measured concentration at 120 min of CC1CC(=O)NN=C1c1ccc(NN=C(C#N)C#N)cc1 (single isomer, unassigned; (-)) , can you help?
Response: 25

###

experiment: Bioavailability of levosimendan following buccal and intravenous administration in dogs (plasma concentration); assay type: in vivo, beagle dogs; details: beagle, dog, plasma, other: buccal spray, 0.02 mg/kg, dog plasma, buccal spray 0.02 mg/kg, 60 min, Dog 3
Reported Property: concentration at 60 min

Query: Suppose we examine the compound CC1CC(=O)NN=C1c1ccc(NN=C(C#N)C#N)cc1 (single isomer, unassigned; (-)) ; what concentration at 60 min value has been reported?
Response: 24 ng/mL

###

test: Bioavailability of levosimendan following buccal and intravenous administration in dogs (plasma concentration); type: in vivo, beagle dogs; details: beagle, dog, plasma, iv, 0.02 mg/kg, dog plasma, iv 0.02 mg/kg, 10 min, Dog 2
Reported Property: concentration at 10 min (ng/mL)
Number only, in ng/mL; omit the unit.

Query: # concentration at 10 min lookup, item CC1CC(=O)NN=C1c1ccc(NN=C(C#N)C#N)cc1 (single isomer, unassigned; (-))
Response: 103

###

test: Bioavailability of levosimendan following buccal and intravenous administration in dogs (plasma concentration); type: in vivo, beagle dogs; details: beagle, dog, plasma, iv, 0.02 mg/kg, dog plasma, iv 0.02 mg/kg, 20 min, Dog 2
Reported Property: concentration at 20 min (ng/mL)
Give a bare numeral; the unit ng/mL is implied.

Query: Suppose we examine the compound CC1CC(=O)NN=C1c1ccc(NN=C(C#N)C#N)cc1 (single isomer, unassigned; (-)) ; what concentration at 20 min value has been reported?
Response: 71

###

Experiment: Bioavailability of levosimendan following buccal and intravenous administration in dogs (plasma concentration)
Assay type: in vivo, beagle dogs
Conditions: beagle, dog, plasma, other: buccal spray, 0.02 mg/kg, dog plasma, buccal spray 0.02 mg/kg, 40 min, Dog 1
Procedure: Bioavailability of levosimendan was studied in dogs following buccal and intravenous administration of 0.02 mg/kg of the compound. As experimental animals, three beagle dogs were used. At the time of dosing all animals weighed approximately 10 kg. […] 5 ml of blood was collected from the cephalic vein at the following times after administration: 0, 10, 20, 40, min, 1, 1.5 and 2 hours. Plasma was separated and stored frozen in −20 ° C. until analyzed. […]
Reported Property: concentration at 40 min (ng/mL)
State just the number; it will be interpreted in ng/mL.

Query: Which concentration at 40 min is reported for this compound? CC1CC(=O)NN=C1c1ccc(NN=C(C#N)C#N)cc1 (single isomer, unassigned; (-))
Response: 32

###

assay: Bioavailability of levosimendan following buccal and intravenous administration in dogs (plasma concentration); type: in vivo, beagle dogs; details: beagle, dog, plasma, other: buccal spray, 0.02 mg/kg, dog plasma, buccal spray 0.02 mg/kg, 10 min, Dog 1
Reported Property: concentration at 10 min (ng/mL)
All answers are understood in ng/mL, so give the number only.

Query: Could you share which concentration at 10 min value was measured for CC1CC(=O)NN=C1c1ccc(NN=C(C#N)C#N)cc1 (single isomer, unassigned; (-)) ?
Response: 10
